Recorded measurements of T/C, one per entry
# System: CD2F1 mice, L1210 leukemia ip, survival T/C
# PROTOCOL_DETAILS: NCI In Vivo Anticancer Drug Screen. Data for tumor model L1210 Leukemia (intraperitoneal) in CD2F1 (CDF1) mice
# PARTICULARS: endpoint: mean survival time; dose: 25.0 mg/kg/injection; schedule: Q01DX009 (ip); vehicle: saline; higher = longer survival
Inconclusive results and toxic doses are left out.
MEASURE: T/C

In [3]: df
Out[3]:
                                    compound    measured_value
 0                               CC(C)=NNCCO  104 % of control
 1                  CC(C)(C)C(=O)C#Cc1ccccc1   94 % of control
 2              O=C(CCBr)N1CCN(C(=O)CCBr)CC1  124 % of control
 3                           CN(C)NCc1ccccc1  102 % of control
 4  Cc1csc(NC(=O)Nc2ccc(F)cc2[N+](=O)[O-])n1  112 % of control
 5             CCOc1ccc2nc3cc(N)ccc3c(N)c2c1  101 % of control
 6  FC(F)(F)c1cccc(C(OCCN2CCCC2)c2ccccc2)c1 (stereo not drawn)  109 % of control
 7  COC(=O)C(N)CCCCNc1ccc2c(cc1=O)C(NC(C)=O)CCc1cc(OC)c(OC)c(OC)c1-2 (stereo not drawn)  100 % of control
 8                      O=C(O)Cn1nnc2ccccc21  102 % of control
 9         Cn1cnc([N+](=O)[O-])c1Sc1ncn[nH]1  107 % of control
10  CC(C)C(N)C(=O)Nc1nncs1 (stereo not drawn)  103 % of control
11  O=C1NC(=O)C2C3CCC(O3)C12 (stereo not drawn)  102 % of control
12  NC(CCCCNC(c1ccccc1)(c1ccccc1)c1ccccc1)C(=O)O (stereo not drawn)   96 % of control

###

Recorded measurements of T/C, one per entry
# Test system: CD2F1 mice, L1210 leukemia ip, survival T/C
# PROTOCOL_DETAILS: NCI In Vivo Anticancer Drug Screen. Data for tumor model L1210 Leukemia (intraperitoneal) in CD2F1 (CDF1) mice
# PARTICULARS: endpoint: mean survival time; dose: 200.0 mg/kg/injection; schedule: Q04DX003 (ip); vehicle: saline; higher = longer survival
Inconclusive results and toxic doses are left out.
MEASURE: T/C

>>> df
                                   molecule    measured_value
0  [NH-]C(CO)C(=O)O.[NH-]C(CO)C(=O)O.[Pt+2] (stereo not drawn)   86 % of control
1        CC(N)CCC(C)(C)O (stereo not drawn)  100 % of control
2                       C=CCNc1ncnc2c1cnn2C  104 % of control
3                            O=C1CCC(=O)N1O  102 % of control
4              Cc1cccc[n+]1CCCS(=O)(=O)[O-]  102 % of control
5                     CCCCCCCCCCCCSCCC(=O)O   98 % of control
6                        CN(C)CCOS(C)(=O)=O   98 % of control
7             CN1C(=O)[N+]2(CCCCC2)N=C1[O-]   97 % of control

###

# System: CD2F1 mice, L1210 leukemia ip, survival T/C
# PROTOCOL_DETAILS: NCI In Vivo Anticancer Drug Screen. Data for tumor model L1210 Leukemia (intraperitoneal) in CD2F1 (CDF1) mice
# PARTICULARS: endpoint: mean survival time; dose: 50.0 mg/kg/injection; schedule: Q01DX009 (ip); vehicle: saline with Tween-80; higher = longer survival
Toxic doses and inconclusive results are not listed.
MEASURE: T/C

                                    molecule    measured_value
 0  c1ccc(CCN2CCC(CCc3c[nH]c4ccccc34)CC2)cc1  107 % of control
 1      O=c1oc2c(ccc3ccccc32)c(O)c1-c1ccccc1  103 % of control
 2        CN(C)CCCN1c2ccccc2C(C)(C)c2ccccc21   97 % of control
 3  O=C(CNC(=O)Nc1cccc([N+](=O)[O-])c1)N/N=C/c1ccc(F)cc1   89 % of control
 4                     O=c1ccc2c([nH]1)CCCC2   92 % of control
 5                      O=C(O)Cn1nnc2ccccc21   97 % of control
 6   CS(=O)(=O)Nc1ccc2c(c1)C(=O)c1ccccc1C2=O  101 % of control
 7  CN1CCC(CN2c3ccccc3Sc3ccccc32)C1 (stereo not drawn)  123 % of control
 8  NC(=O)c1c(F)c(F)c(Oc2c(F)c(F)c(Oc3c(F)c(F)c(C(N)=O)c(F)c3F)c(F)c2F)c(F)c1F  101 % of control
 9  O=C(CN1CCCCC1Cl)c1ccccc1 (stereo not drawn)   96 % of control
10  COc1cc(OC)c(NC(=O)Oc2cc(C)c(Cl)c(C)c2Cl)cc1Cl   94 % of control
11                CC(=O)c1cc2ccccc2c2ccccc12   89 % of control
12              O=C1C2(CCCCC2)C(=O)C12CCCCC2   96 % of control
13  Cc1ccc(S(=O)(=O)OC2CC3CC2C2C4C=CC(C4)C32)cc1 (stereo not drawn)  101 % of control
14                 C/C(=N/O)c1cc(CN(C)C)oc1C   92 % of control
15  COc1ccc(CN(CCO)CCCCCCN(CCO)Cc2ccc(OC)cc2)cc1   96 % of control
16          CC1OCOC(C)C1C (stereo not drawn)   91 % of control
17                         CC/C=C(\CC)C(=O)O  109 % of control
18                CN(C)N=Nc1c(F)cc(F)c(F)c1F  104 % of control
19  CCCCC/C=C/C/C=C\CCCCCCCC1=C(O)C(=O)C(OC)=C(OC)C1=O  102 % of control
20                            Cc1ccc(CCl)cc1  115 % of control
21       O=C(CC(O)(C(F)(F)F)C(F)(F)F)c1ccco1  116 % of control
22  CN(C)c1ccc(/C=N\NC(=O)CNC(=O)Nc2ccc(F)cc2)c(Cl)c1  100 % of control
23  CC(C)(C)NC(=O)CCC(CC(=O)NC(C)(C)C)OCc1ccccc1 (stereo not drawn)  100 % of control
24             C=C(C)CC1(CC)C(=O)NC(=S)NC1=O  102 % of control
25                    N=C1c2ccccc2-c2ccccc21  101 % of control
26  CC(c1ccccc1)n1cncc1C(=O)N1CCN(C)CC1 (stereo not drawn)   96 % of control
27  CC(C)=CCC/C(C)=C/COc1ccc(/C=C2/C(=O)N(O)[C@@H](C)C(=O)N2O)cc1  112 % of control
28  C[N+](C)(C)CC(O)c1ccccc1 (stereo not drawn)  100 % of control
29                           C=CC/C=C/CCCCCC  114 % of control
30         CC(C)C(O)C(C)N (stereo not drawn)   95 % of control
31  COC(=O)C1C2CC(O)C(C2)C1C(=O)OC (stereo not drawn)  104 % of control
32                         CCCC/C=C\C(=O)OCC  104 % of control
33  CN(C)c1ccc(/C=N/NC(=O)CNC(=O)Nc2cccc(C(F)(F)F)c2)cc1   96 % of control
34                  CCOC(=O)c1cc2ccccc2oc1=O   97 % of control
35     CCCCOC(=O)c1ccc(NC(=O)Nc2ccccc2Cl)cc1   89 % of control
36             Cc1ccc(NC(=O)/C=C/C(=O)O)cc1C   95 % of control
37                CCN(CC)CC(=O)Nc1c(C)cccc1C   95 % of control
38      Brc1ccc(C[N+]23CN4CN(CN(C4)C2)C3)cc1   97 % of control
39  CCCC(=O)Nc1ccn(C2OC(CO)C(O)C2O)c(=O)n1 (stereo not drawn)   98 % of control
40        CCCNc1ccc(S(=O)(=O)c2ccc(N)cc2)cc1   95 % of control
41  O=C(CNC(=O)Nc1cccc([N+](=O)[O-])c1)N/N=C/c1cccc(O)c1   92 % of control
42                 N=c1nc(N)nc(N)n1-c1ccccc1   98 % of control
43       COc1cc(Cl)ccc1NC(=O)Oc1c(Cl)cccc1Cl  104 % of control
44                                N#CCC(N)=S   96 % of control
45   CC12CC1(C)C(=O)OC2=O (stereo not drawn)   96 % of control
46             CC(=O)Nc1ccccc1OC(=O)c1ccccc1   97 % of control
47                                Cc1cccnc1F  100 % of control

Every entry's value here was drawn from PubChem BioAssay AID256.
